The measurements presented in this section are drawn from ChEMBL document CHEMBL3045921.

As shown below, each of these molecules has a reported mortality at 500 ppm value.
Test system: Tetranychus urticae
Test: Acaricidal activity against Tetranychus urticae (two-spotted spider mite) in kidney bean leaf assessed as mortality at 500 ppm at 25 degC measured after 5 days
Type: functional
Conditions: 120 h
Answer with a number only, understood to be in %.

Solved cases (4 shown):
{"columns": ["line notation", "observed measurement"],
 "data": [
  ["CCc1nn(C)c(C(=O)NCc2ccc(C)cc2)c1Cl", 0],
  ["Cn1ncc(Cl)c1C(=O)NCc1ccc(C(C)(C)C)cc1", 100],
  ["Cc1nn(C)c(C(=O)NCc2ccccc2)c1Br", 0],
  ["CCn1nc(C)c(Cl)c1C(=O)NCc1ccc(C(C)(C)C)cc1", 0]
]}

(Q) Recall and state the measured mortality at 500 ppm for `CCc1nn(C)c(C(=O)NCc2ccc(CC(C)(C)C)cc2)c1Cl` .
(A) 100

(Q) Recall and state the measured mortality at 500 ppm for `CCCCCCCCc1ccc(CNC(=O)c2c(Cl)c(CC)nn2C)cc1` .
(A) 100

(Q) Recall and state the measured mortality at 500 ppm for `Cc1nn(C)c(C(=O)SCc2ccc(C(C)(C)C)cc2)c1Cl` .
(A) 30

----------
As shown below, each of these molecules has a reported mortality at 500 ppm value.
System: Tetranychus urticae
Assay: Acaricidal activity against Tetranychus urticae (two-spotted spider mite) in kidney bean leaf assessed as mortality at 500 ppm at 25 degC measured after 5 days
Format: functional
Conditions: 120 h
Answer with a number only, understood to be in %.

{"columns": ["line notation", "target system", "unit abbrev", "observed measurement"],
 "data": [
  ["Cc1nn(C)c(C(=O)NCc2ccc(C(F)(F)F)cc2)c1Cl", "Tetranychus urticae", "%", 100]
]}

Shifting focus to the molecule that follows.
(Q) Recall and state the measured mortality at 500 ppm for `CCc1nn(C)c(C(=O)NCc2ccc([Si](C)(C)C)cc2)c1Cl` .
(A) 100

----------
Test system: Tetranychus urticae
Assay: Acaricidal activity against Tetranychus urticae (two-spotted spider mite) in kidney bean leaf assessed as mortality at 3.1 ppm at 25 degC measured after 5 days
Type: functional
Conditions: 120 h
property name: mortality at 3.1 ppm (%)
Answer with a number only, understood to be in %.

{"columns": ["molecule", "target system", "unit abbrev", "mortality at 3.1 ppm"],
 "data": [
  ["Cc1nn(C)c(C(=O)NCc2ccc(C(C)(C)C)cc2)c1Cl", "Tetranychus urticae", "%", 30],
  ["CCc1nn(C)c(C(=O)NCc2ccc(C(C)CC)cc2)c1Cl (stereo unspecified)", "Tetranychus urticae", "%", 0],
  ["Cc1nn(C)c(C(=O)NCc2ccc(C(C)(C)C)cc2)c1C#N", "Tetranychus urticae", "%", 0]
]}

Shifting focus to the molecule that follows.
(Q) Recall and state the measured mortality at 3.1 ppm for `CCCCCCc1ccc(CNC(=O)c2c(Cl)c(CC)nn2C)cc1` .
(A) 0

----------
System: Panonychus citri
Assay: Ovicidal activity against Panonychus citri in mandarin orange leaf assessed as egg mortality at 25 degC measured after 7 days
Assay type: functional
Details: 168 h
As shown below, each of these molecules has a reported LC50 value.

Solved cases (4 shown):
{"columns": ["molecule", "LC50"],
 "data": [
  ["CCc1nn(C)c(C(=O)NCc2ccc(C(C)(C)C)cc2)c1Cl [TEBUFENPYRAD]", "3.9 µg/mL"],
  ["Cc1nn(C)c(C(=O)NCc2ccc(C(C)(C)C)cc2)c1C", "36 µg/mL"],
  ["Cc1nn(C)c(C(=O)NCc2ccc(C(C)(C)C)cc2)c1Cl", "9.9 µg/mL"],
  ["CCc1nn(C)c(C(=O)NCc2ccc(C(C)(C)C)cc2)c1Br", "10 µg/mL"]
]}

Shifting focus to the molecule that follows.
(Q) Report its LC50 with Panonychus citri as the test system: `Cc1nn(C)c(C(=O)NCc2ccc(C(C)(C)C)cc2)c1Br`
(A) 17 µg/mL
